Test: log P by HPLC on reversed-phase column (C 18), EEC Directive 79/831 Annex V.A8
Assay type: physicochemical
Conditions: Table 1; HPLC, 0.1% aqueous formic acid and acetonitrile, 40° C.; single value, or first value of a mixture of two diastereoisomers
experimental-readout: logP

Cc1cc(C(=O)N2CCCC2C2CCc3c(F)cccc32)c(C)o1 (single isomer, unassigned) [I.06] :: 3.74
Cn1nc(C(F)F)c(C(=O)N2CCCC2C2CCc3ccc(Cl)cc32)c1Cl (mixture of isomers) [I.20] :: 3.87
Cn1cc(C(=O)N2CCCC2C2CCc3c(F)cccc32)c(C(F)F)n1 (mixture of isomers) [I.01] :: 2.88
